Origin of measurements: PubChem BioAssay

# Experiment: binders of probe aHhip on microarray, primary screen, stem cell growth factor project, biochemical, small-molecule microarray, fluorescence 635/667 (AID 1087);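 further: score merges spot fluorescence at 667nm with spot signal to noise ratio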
# Test Parameters: higher = more signal
Binary classification by composite z-score, with -0.02 as an inclusive lower bound for TRUE; all other cases are FALSE.

{"Molecule": "CC(C)[Si]1(C(C)C)O[C@@H](c2ccccc2)c2cc(-c3ccc(-c4ccc(Cl)c(Cl)c4)o3)nc(-c3ccccc3)c21", "Assigned Category": "FALSE"}
{"Molecule": "O=C1C2C=CC(C(O)CCc3ccccc3)N(Nc3ccccc3F)C2C(=O)N1c1ccccc1 (stereo not drawn)", "Assigned Category": "FALSE"}
{"Molecule": "CO[C@H]1O[C@H](CO)[C@@H](OC(=O)Nc2cccc(F)c2)[C@H](OC(=O)Nc2ccccc2)[C@@H]1OC(=O)Nc1ccccc1", "Assigned Category": "FALSE"}
{"Molecule": "CC(CO)N1C(=O)[C@@H]2C3C(=O)OCCC/C=C\\[C@H]3OC23C=CCN(C(C)(C)C)C(=O)[C@@H]13 (stereo partly drawn)", "Assigned Category": "TRUE"}
{"Molecule": "C=C(COC)C(=O)CC[C@@H](OC(C)=O)c1ccc(CO)o1", "Assigned Category": "TRUE"}
{"Molecule": "CC(=O)NCCCC[C@@H]1NC(=O)[C@H]2C[C@@H](C(=O)NCCCCCCNC(=O)CS)[C@@H](c3ccc(O)cc3)N2C1=O", "Assigned Category": "FALSE"}
{"Molecule": "CO[C@H]1O[C@H](CO)[C@@H](OC(=O)Nc2ccc(C(F)(F)F)cc2)[C@H](OC(=O)Nc2ccc3c(c2)OCO3)[C@@H]1OC(=O)Nc1ccc2c(c1)OCO2", "Assigned Category": "TRUE"}
{"Molecule": "C=CCOC(=O)[C@H]1[C@@H]2C(=O)O[C@@H](c3ccccc3)[C@@H](c3ccccc3)N2[C@@H](c2ccc(OCCOC(=O)[C@@H]3C[C@@H]4C(=O)N[C@@H](CC(C)C)C(=O)N4[C@@H]3c3ccc(O)cc3)cc2)[C@]12C(=O)Nc1ccccc12", "Assigned Category": "TRUE"}
{"Molecule": "CCCCC(CC)C(O)C1C=CC2C(=O)N(Cc3ccccc3)C(=O)C2N1n1cnnc1 (stereo not drawn)", "Assigned Category": "FALSE"}
{"Molecule": "C=CCNC(=O)[C@@H]1[C@H]2C(=O)O[C@H](c3ccccc3)[C@H](c3ccccc3)N2[C@H](c2ccc(O)cc2)[C@@]12C(=O)Nc1ccc(C#CCNC(N)=O)cc12", "Assigned Category": "FALSE"}
{"Molecule": "O=C1O[C@@H](c2ccccc2)[C@@H](c2ccccc2)N2[C@@H](c3ccccc3OCCO)[C@]3(C(=O)Nc4ccccc43)[C@@H](C(=O)Nc3nc4ccccc4s3)[C@H]12", "Assigned Category": "FALSE"}
{"Molecule": "COc1ccc(C#Cc2ccc3c(c2)[C@]2(C(=O)N3)[C@H](C(=O)NC[C@H](O)c3ccccc3)[C@H]3C(=O)O[C@H](c4ccccc4)[C@H](c4ccccc4)N3[C@@H]2c2ccc(O)cc2)cc1", "Assigned Category": "FALSE"}
{"Molecule": "COc1cc2c(cc1OC)CN(C(=O)[C@H]1[C@@H]3C(=O)O[C@@H](c4ccccc4)[C@@H](c4ccccc4)N3[C@@H](c3ccc(O)cc3)[C@]13C(=O)Nc1ccccc13)CC2", "Assigned Category": "TRUE"}
{"Molecule": "O=C1c2ccccc2[C@](Cc2ccccc2I)(C(=O)NCCN2CCOCC2)[C@H](c2ccc(CO)cc2)N1C1CCCCC1", "Assigned Category": "TRUE"}
{"Molecule": "CCCC#C[Si](O[C@H](CC)c1cn(Cc2cccc(Cl)c2)nn1)(C(C)C)C(C)C", "Assigned Category": "FALSE"}
{"Molecule": "C=CC1(C(=O)OC)CC=C(C(=O)OC)CC1 (stereo not drawn)", "Assigned Category": "TRUE"}
{"Molecule": "COC(=O)[C@@]1(Cc2ccc(F)cc2)[C@H]2c3cc(C(=O)N4CCCC4)n(Cc4ccc(S(C)(=O)=O)cc4)c3C[C@H]2CN1C(=O)c1ccccc1", "Assigned Category": "TRUE"}
{"Molecule": "CC(C)C(=C=CC[C@@H](O)c1ccc(OCCO)cc1)C[C@@H](O)c1ccccn1", "Assigned Category": "FALSE"}
{"Molecule": "NCCCCCNC(=O)[C@@H]1C[C@@H]2C(=O)N[C@@H](Cc3ccccc3)C(=O)N2[C@@H]1c1ccc(O)cc1", "Assigned Category": "FALSE"}
{"Molecule": "CN(C)CCCC[C@@H]1NC(=O)[C@H]2C[C@@H](C(=O)NCCCCCCN)[C@@H](c3ccc(O)cc3)N2C1=O", "Assigned Category": "TRUE"}
{"Molecule": "CC(C)C[C@@H]1NC(=O)[C@H](C(C)C)NC(=O)[C@@]23C(=O)N[C@@H](Cc4ccccc4)C2[C@H](C)[C@@]2(C)O[C@H]2C3/C=C/CC/C=C/CNC1=O (stereo partly drawn)", "Assigned Category": "TRUE"}
{"Molecule": "COc1cc(Br)cc(C(O)C2C=CC3C(=O)N(C)C(=O)C3N2N2CCCCC2)c1OC (stereo not drawn)", "Assigned Category": "TRUE"}
{"Molecule": "[N-]=[N+]=NCc1ccccc1[C@@H]1OC(c2ccc(OCCCO)cc2)=N[C@]1(Cc1ccccc1)C(=O)NCC(O)CO (stereo partly drawn)", "Assigned Category": "TRUE"}
{"Molecule": "NC(=O)N1C(=O)C2C(C1=O)C1C=C(c3ccc(CO)cc3)C2C(c2cccs2)N1Cc1cccc(OC(F)(F)F)c1 (stereo not drawn)", "Assigned Category": "FALSE"}
{"Molecule": "CCCCCCc1nc(-c2ccc(OC)nc2)cc2c1[Si](C(C)C)(C(C)C)O[C@H]2c1ccccc1", "Assigned Category": "FALSE"}
{"Molecule": "C=C(C)[C@@H]1CC=C(C(O)C2C=CC3C(=O)N(C)C(=O)C3N2Nc2ccccc2)CC1 (stereo partly drawn)", "Assigned Category": "TRUE"}
{"Molecule": "CC(C)NC(=O)[C@@]1(c2ccc([N+](=O)[O-])cc2)CC(=O)N(C2CCCCC2)[C@@H]1c1ccc(CO)cc1I", "Assigned Category": "TRUE"}
